system: MS2 coat protein; test: apparent KD of MS2 coat protein; designed switch direction (-1 OFF switch, 1 ON switch): -1; higher = weaker reporter binding; conditions: input ligand: none
attribute_measured: apparent KD of MS2 coat protein
Provide a numeric answer, followed by its unit.

Record excerpt, results attached:
ACAUGUAUUGCAGGAUAUGGGACACAUGAGGAUCACCCAUGUGACCAUAUGUAAUGCUAAGAGUCUCAGAAGGGUAUGUACAUG [Ex NG2 #45] (Eterna round: R96, puzzle: Exclusion NG 2): 0.0114 µM
GGUAGGUGUGACUUGGGUGACAUGAGGAUCACCCAUGUCACAAGCUUGUUGCUCGCCUUGUAAUUAACCCAUGUCAC [LRO Sensor-off var1-29 mod of Stov1-13-A1 by Brourd] (Eterna round: R97, puzzle: Sensor, turn-off variant 1): 0.0215 µM

Determine reported apparent KD of MS2 coat protein for UUUUUAAAUGAAGGAUAUACUUAACAUGAGGAUCACCCAUGUGGUGUUGUGAGUGAGUGAGUUUAGUAGAAGGUCAAUGAUUUU [JMF's solution 65] (Eterna round: R96, puzzle: Exclusion NG 2) ; test system: MS2 coat protein.
0.211 µM

Determine reported apparent KD of MS2 coat protein for AGCUAGUCAGGAUAUUCUAAUAAUUACAUGAGGAUCACCCAUGUGAAUAGACAAGGGUGUGAAGAAGGGACUAGCG [Omei Ex5 A5] (Eterna round: R97, puzzle: Exclusion 5) ; test system: MS2 coat protein.
0.366 µM

Determine reported apparent KD of MS2 coat protein for AUAUAGCGAGGAUAUACAUGAGGAUCACCCAUGUGGUAGUAGAUACGGUAGGGCUAGUGUAGAAGGUGCUAUGA [EX3 #12] (Eterna round: R97, puzzle: Exclusion 3) ; test system: MS2 coat protein.
0.231 µM

Determine reported apparent KD of MS2 coat protein for GGAUAAAAGACAGGAUAUGAGGAGAGAGAGAGAUCAGAAGGGUCACAUGAGGAUCACCCAUGUGAGUUCUCGAUAAGAAACACG [Prohibition 54 - Jieux - Exclusion NG 1] (Eterna round: R96, puzzle: Exclusion NG 1) ; test system: MS2 coat protein.
0.0184 µM

Determine reported apparent KD of MS2 coat protein for AUUUAGCAAGCCUGAUCCUACAUGAGGAUCACCCAUGUAGUUCGUCUUAUUUGAAGACAACACAAAAGUGUUGUCUU [Omei Mir OFFv1 B7] (Eterna round: R97, puzzle: Sensor, turn-off variant 1) ; test system: MS2 coat protein.
0.0185 µM

Determine reported apparent KD of MS2 coat protein for ACACAGCAAGGAUAUACAUGAGGAUCACCCAUGUGGUGGCAGUUACGGUAGGACUAGUGUAGAAGGUGCAGUGG [EX3 #30] (Eterna round: R97, puzzle: Exclusion 3) ; test system: MS2 coat protein.
0.668 µM

Determine reported apparent KD of MS2 coat protein for AAAAAGGGAGGAUAUACAUGAGGAUCACCCAUGUAGCAGACGAAAAAGAGUCUGUAAUGUAGAAGGCCCAAAAA [65%, Moding Exclusion3-cac2, 4] (Eterna round: R96, puzzle: Exclusion 3) ; test system: MS2 coat protein.
0.0175 µM

Values compiled from the supplement of paper PMC9170038.
